Below, each entry is listed with its recorded melting point.

Clc1ccc(-n2c3c/c(=N\C4CCOCC4)c(Nc4cccnc4)cc-3nc3ccccc32)cc1    215 to 217 °C

Query compound follows.
For the compound COc1ncccc1Nc1cc2nc3ccccc3n(-c3ccc(Br)cc3)c-2c/c1=N\C1CC1 , what melting point is on record?
217 to 218 °C

---

Below, each entry is listed with its recorded Log CFU (TBI treated).
# System: H37Rv
# Assay comment: In vivo testing: mice infected intravenously with H37Rv, lung tissue CFU counts
# Set-up: species or system Male BALB/c mice
# Experimental conditions: 20 mg/kg, gavage 5 times weekly, lung tissue CFU, thirty days postinfection

Please review the entries below; each comes with its answer.
COc1ncccc1Nc1cc2nc3ccccc3n(-c3ccc(Cl)cc3)c-2c/c1=N\C1CCC(OC)CC1 (centres unmarked)    4.71
COc1ncccc1Nc1cc2nc3ccccc3n(-c3ccc(F)cc3)c-2c/c1=N\C(C)C    4.28
COc1ncccc1Nc1cc2nc3ccccc3n(-c3ccc(F)cc3)c-2c/c1=N\C1CC1    4.86
COC1CCC(/N=c2\cc3n(-c4ccc(C(F)(F)F)cc4)c4ccccc4nc-3cc2Nc2cccnc2)CC1 (centres unmarked)    5.99
FC(F)(F)Oc1ccc(-n2c3c/c(=N\C4CCOCC4)c(Nc4cccnc4)cc-3nc3ccccc32)cc1    6.05

For the compound Cc1ccc(Nc2cc3nc4ccccc4n(-c4ccc(Cl)cc4)c-3c/c2=N\C2CCOCC2)cn1 , what Log CFU (TBI treated) is on record?
3.87

For the compound COc1ncccc1Nc1cc2nc3ccccc3n(-c3ccc(F)cc3)c-2c/c1=N\C1CCC(OC)CC1 (centres unmarked) , what Log CFU (TBI treated) is on record?
4.85

For the compound CC(C)/N=c1\cc2n(-c3ccc(Cl)cc3)c3ccccc3nc-2cc1Nc1cccnc1 , what Log CFU (TBI treated) is on record?
3.83

---

Below, each entry is listed with its recorded Log CFU (TBI treated).
# Tested on: H37Rv
# Assay comment: In vivo testing: mice infected intravenously with H37Rv, lung tissue CFU counts
# Parameters: species or system Male BALB/c mice
# Experimental conditions: 20 mg/kg, gavage 5 times weekly, lung tissue CFU, thirty days postinfection
Please reply with the number alone, leaving off any unit.

Please review the entries below; each comes with its answer.
COc1ncccc1Nc1cc2nc3ccccc3n(-c3ccc(Cl)cc3)c-2c/c1=N\C1CCOCC1 [TBI-443]    5.13
COC1CCC(/N=c2\cc3n(-c4ccc(Cl)cc4)c4ccccc4nc-3cc2Nc2ccc(C)nc2)CC1 (stereo not shown) [TBI-450]    3.64
COc1ncccc1Nc1cc2nc3ccccc3n(-c3ccc(OC(F)(F)F)cc3)c-2c/c1=N\C1CCC(OC)CC1 (stereo not shown) [TBI-166]    4.66

Query compound follows.
For the compound CC(C)/N=c1\cc2n(-c3ccc(C(F)(F)F)cc3)c3ccccc3nc-2cc1Nc1cccnc1 [TBI-678] , what Log CFU (TBI treated) is on record?
5.82

---

Readout type: melting point

Please review the entries below; each comes with its answer.
CN1CCC(/N=c2\cc3n(-c4ccc(Cl)cc4)c4ccccc4nc-3cc2Nc2cccnc2)CC1 [TBI-427]    198 to 200 °C
CC(C)CN1CCC(/N=c2\cc3n(-c4ccc(Cl)cc4)c4ccccc4nc-3cc2Nc2cccnc2)CC1 [TBI-435]    209 to 210 °C
Clc1ccc(-n2c3c/c(=N\C4CCN(C5CCCC5)CC4)c(Nc4cccnc4)cc-3nc3ccccc32)cc1 [TBI-437]    170 to 172 °C
COC1CCC(/N=c2\cc3n(-c4ccc(Cl)cc4)c4ccccc4nc-3cc2Nc2cccnc2)CC1 (stereo not shown) [TBI-436]    228 to 230 °C
Clc1ccc(-n2c3c/c(=N\C4CCCCC4)c(Nc4cccnc4)cc-3nc3ccccc32)cc1 [TBI-422]    194 to 196 °C

For the molecule CN1CCC(C/N=c2\cc3n(-c4ccc(Cl)cc4)c4ccccc4nc-3cc2Nc2cccnc2)CC1 [TBI-428] , what melting point is on record?
188 to 190 °C

For the molecule CC(C)/N=c1\cc2n(-c3cccc(F)c3)c3ccccc3nc-2cc1Nc1cccnc1 [TBI-522] , what melting point is on record?
164 to 166 °C
